target: T1, human MSLN-R2-his protein (human, UniProt Q13421 391-486); assay: ELISA on coated antigen, antibody 10 nM
T1 construct: Self-made in HEK293E cells; also called human MSLN-R2 protein; hMSLN-R2-his; not shown: His tag
T1 sequence (Q13421 other isoform, or with tags, fused parts or gaps): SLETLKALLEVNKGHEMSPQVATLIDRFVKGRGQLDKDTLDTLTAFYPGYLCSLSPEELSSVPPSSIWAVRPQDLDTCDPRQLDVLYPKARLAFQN
Entries and their measured OD450 follow.
Answer format: numeric, OD450 implied, no suffix.

Sample records with OD450:
S009-F2-56.12 (antibody, human IgG1, kappa, V domains shown, Human-murine chimeric antibody: murine VH/VL on human IgG1 heavy and kappa light constant regions) VH: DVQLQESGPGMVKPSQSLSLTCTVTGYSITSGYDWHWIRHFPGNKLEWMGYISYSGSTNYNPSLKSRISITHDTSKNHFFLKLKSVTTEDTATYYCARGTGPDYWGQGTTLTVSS VL: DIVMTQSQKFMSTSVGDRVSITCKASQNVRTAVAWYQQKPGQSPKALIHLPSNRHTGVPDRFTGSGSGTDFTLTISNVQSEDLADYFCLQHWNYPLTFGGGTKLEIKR :: 0.07
S009-F2.16.10 (antibody, human IgG1, kappa, V domains shown, Human-murine chimeric antibody: murine VH/VL on human IgG1 heavy and kappa light constant regions) VH: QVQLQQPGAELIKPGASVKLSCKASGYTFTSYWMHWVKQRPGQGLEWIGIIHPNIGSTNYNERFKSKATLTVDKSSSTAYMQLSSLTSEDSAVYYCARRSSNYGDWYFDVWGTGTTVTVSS VL: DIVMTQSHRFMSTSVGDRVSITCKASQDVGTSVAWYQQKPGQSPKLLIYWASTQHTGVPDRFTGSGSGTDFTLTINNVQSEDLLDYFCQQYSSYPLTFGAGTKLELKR :: 0.05
S009-F2.47.1 (antibody, human IgG1, kappa, V domains shown, Human-murine chimeric antibody: murine VH/VL on human IgG1 heavy and kappa light constant regions) VH: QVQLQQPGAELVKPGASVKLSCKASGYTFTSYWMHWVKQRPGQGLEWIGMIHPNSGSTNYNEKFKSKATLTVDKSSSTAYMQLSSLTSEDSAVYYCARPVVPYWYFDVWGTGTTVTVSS VL: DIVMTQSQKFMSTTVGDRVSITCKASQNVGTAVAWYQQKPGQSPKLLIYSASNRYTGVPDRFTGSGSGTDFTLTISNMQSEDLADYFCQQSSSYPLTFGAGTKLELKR :: 0.05

With those in mind, consider the next binder.
Please report the recorded OD450 for S009-F2.21.4 (antibody, human IgG1, kappa, V domains shown, Human-murine chimeric antibody: murine VH/VL on human IgG1 heavy and kappa light constant regions) VH: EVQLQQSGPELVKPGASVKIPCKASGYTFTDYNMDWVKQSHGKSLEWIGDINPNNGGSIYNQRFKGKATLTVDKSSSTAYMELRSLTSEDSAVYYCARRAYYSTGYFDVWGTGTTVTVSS VL: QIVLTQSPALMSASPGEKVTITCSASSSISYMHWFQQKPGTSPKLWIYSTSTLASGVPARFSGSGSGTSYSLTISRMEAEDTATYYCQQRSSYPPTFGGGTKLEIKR . 0.05
